- System: OVCAR-3 ovarian
- assayComment: NCI tumour cell line growth inhibition, 48 h; in the data active = GI50 below about 0.43 µM; inactive = the rest
Possible outcomes: true (active), false (inactive)

molecule	assignedLabel
COc1ccc(-c2oc3c(OC)c(OC)c(OC)c(O)c3c(=O)c2OC)cc1O	true
COc1cc2c3c(n(CCCn4cncn4)c(=O)c2cc1OC)-c1cc2c(cc1C3=O)OCO2	false
CCCCC(OC(=O)c1ccc(N)cc1)C(=O)Nc1nc(CC(=O)OCC)cs1 (stereo not given)	false
COc1ccc2nc3c(cc2c1)C(=O)CC(c1ccccc1)C3 (stereo not given)	false
C1C[OH+]CCNCC[OH+]CC[OH+]CCN1.N.[Cl-].[Pt+4]	false
C#Cc1cccc(NC(=O)c2cccc(NC(=O)CCl)c2)c1	false
CCN1C(=O)N(CC)C2C1NN=c1s/c(=C\c3ccc(C(F)(F)F)cc3)c(=O)n12 (stereo not given)	true
CCOC(=O)c1c2c(n3ccc(NC(=O)CCN4CCCCC4)cc13)C(=O)c1ncccc1C2=O	false
Cc1c[nH]c(=O)n(Cc2nnc(CCC(=O)c3nc4ccccc4[nH]3)o2)c1=O	true
O=C1/C(=C/c2ccc(F)cc2)CN(C(=O)C(Cl)Cl)C/C1=C\c1ccc(F)cc1	true

Values from PubChem BioAssay (NCI)
